target: Melanocortin receptor 4 (Homo sapiens); test: Effective concentration against hMC4R using HEK293 cells was determined by measuring cAMP accumulation at 50 uM; assay type: functional, cell-based
Sequence (P32245 whole entry): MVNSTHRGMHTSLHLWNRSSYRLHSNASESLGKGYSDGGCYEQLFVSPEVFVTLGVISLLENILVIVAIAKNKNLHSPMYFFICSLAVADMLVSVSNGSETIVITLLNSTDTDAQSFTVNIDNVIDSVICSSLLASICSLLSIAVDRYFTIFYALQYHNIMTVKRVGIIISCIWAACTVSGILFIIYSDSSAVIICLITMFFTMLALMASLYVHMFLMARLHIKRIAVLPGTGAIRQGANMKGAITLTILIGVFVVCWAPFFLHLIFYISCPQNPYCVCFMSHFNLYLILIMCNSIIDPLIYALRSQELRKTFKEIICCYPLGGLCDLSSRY
MEASUREMENT TYPE: EC50 (nM)
Kindly provide the numeric value in nM only, without the unit symbol.

**Q:** Indicate its recorded EC50; the compound in question is CCCC(=O)N[C@@H](Cc1c[nH]cn1)C(=O)NC(Cc1cccs1)C(=O)N[C@@H](CCCN=C(N)N)C(=O)N[C@@H](Cc1c[nH]c2ccccc12)C(=O)NCC(N)=O (single isomer, unassigned)
**A:** 8

**Q:** Indicate its recorded EC50; the compound in question is CCCC(=O)N[C@@H](Cc1c[nH]cn1)C(=O)NC(Cc1ccccc1)C(=O)N[C@@H](CCCN=C(N)N)C(=O)NC(Cc1c[nH]c2ccccc12)C(=O)NCC(N)=O (single isomer, unassigned)
**A:** 110

Cited source for all entries: ChEMBL document CHEMBL1136586
